# Tested on: HSkMC (human skeletal muscle cells)
# test_name: cytotoxicity call (relative viability < 0.9)
# assay_context: 10 µM
About 1,500 (3.8%) of roughly 39,000 compounds were called active. Only a selection was taken, and actives are over-represented in it overall.
Could you please pick one outcome from this set? true = active, false = inactive

Request: # outcome recorded in this test, key = C[C@@H]1CN([C@@H](C)CO)C(=O)c2cccc(NC(=O)Nc3cccc4ccccc34)c2O[C@H]1CN(C)C(=O)NC1CCCCC1
Response: false

Request: # outcome recorded in this test, key = O=C(C[C@@H]1C=C[C@@H](NS(=O)(=O)c2ccccc2F)[C@@H](CO)O1)NCCCN1CCOCC1
Response: false

Request: # outcome recorded in this test, key = COc1cccc(S(=O)(=O)Nc2ccc3c(c2)[C@@H]2C[C@H](CC(=O)N4CCCCC4)O[C@H](CO)[C@@H]2O3)c1
Response: false

Request: # outcome recorded in this test, key = O=C(C[C@H]1C=C[C@H](NS(=O)(=O)c2ccc(F)cc2)[C@@H](CO)O1)NCCN1CCCCC1
Response: false

Request: # outcome recorded in this test, key = O=C(CN1CCOCC1)NCC[C@H]1CC[C@H](NC(=O)c2ccccc2F)[C@@H](CO)O1
Response: false

Request: # outcome recorded in this test, key = C[C@H]1CN([C@@H](C)CO)C(=O)c2cccc(NC(=O)Nc3cccc4ccccc34)c2O[C@H]1CN(C)C(=O)NC1CCCCC1
Response: false

Request: # outcome recorded in this test, key = COc1ccc(NC(=O)Nc2ccc3c(c2)C(=O)N([C@@H](C)CO)C[C@@H](C)[C@@H](CN(C)C(=O)Nc2ccc4c(c2)OCO4)OCCCC[C@@H](C)O3)cc1
Response: false

Request: # outcome recorded in this test, key = C[C@H]1CN([C@@H](C)CO)C(=O)Cc2cc(NC(=O)CCCCCC(=O)Nc3ccccc3N)ccc2O[C@@H]1CN(C)Cc1ccc(C(F)(F)F)cc1
Response: false

Request: # outcome recorded in this test, key = C[C@@H]1CN([C@H](C)CO)C(=O)c2cc(NC(=O)Cn3cnnn3)ccc2O[C@@H]1CN(C)Cc1ccc(C(F)(F)F)cc1
Response: false

Request: # outcome recorded in this test, key = C[C@@H]1CN([C@H](C)CO)C(=O)c2cccc(NC(=O)Nc3cccc4ccccc34)c2O[C@@H]1CN(C)C(=O)NC1CCCCC1
Response: false

Request: # outcome recorded in this test, key = C[C@@H]1CCCCO[C@@H](CN(C)Cc2ccc3c(c2)OCO3)[C@H](C)CN([C@@H](C)CO)C(=O)c2cc(NC(=O)Nc3ccc(C(F)(F)F)cc3)ccc2O1
Response: true

Request: # outcome recorded in this test, key = C[C@@H]1CN([C@@H](C)CO)C(=O)Cc2cc(NC(=O)CCCCCC(=O)Nc3ccccc3N)ccc2O[C@H]1CN(C)Cc1ccc(C(F)(F)F)cc1
Response: false

Request: # outcome recorded in this test, key = C=CCNC(=O)CSc1nc(=O)cc(N)[nH]1
Response: false

Request: # outcome recorded in this test, key = Cc1noc(C)c1NC(=O)Nc1cccc2c1O[C@@H](CN(C)C(=O)NC(C)C)[C@@H](C)CN([C@H](C)CO)C2=O
Response: false

Request: # outcome recorded in this test, key = C[C@H]1CCCCO[C@@H](CN(C)Cc2ccc(C(=O)O)cc2)[C@@H](C)CN([C@@H](C)CO)C(=O)c2cc(NC(=O)c3ccccc3)ccc2O1
Response: false

Request: # outcome recorded in this test, key = C[C@@H]1CN([C@@H](C)CO)C(=O)c2cccc(NS(=O)(=O)c3cn(C)cn3)c2O[C@@H]1CN(C)S(=O)(=O)c1ccc(Cl)cc1
Response: false

Request: # outcome recorded in this test, key = COc1ccc(S(=O)(=O)Nc2cccc3c2O[C@@H](CN(C)S(=O)(=O)c2cn(C)cn2)[C@H](C)CN([C@H](C)CO)C3=O)cc1
Response: false

Request: # outcome recorded in this test, key = C[C@@H]1CCCCO[C@H](CN(C)C(=O)c2ccncc2)[C@@H](C)CN([C@@H](C)CO)C(=O)c2cc(NC(=O)NC3CCCCC3)ccc2O1
Response: false

Request: # outcome recorded in this test, key = Cc1ccc(S(=O)(=O)Nc2ccc3c(c2)C(=O)N([C@@H](C)CO)C[C@H](C)[C@@H](CN(C)C(=O)Nc2c(C)noc2C)OCCCC[C@@H](C)O3)cc1
Response: false

Request: # outcome recorded in this test, key = CCCC#Cc1cnc2c(c1)C(=O)N([C@H](C)CO)C[C@H](C)[C@H](CN(C)S(=O)(=O)c1cn(C)cn1)O2
Response: false

Request: # outcome recorded in this test, key = C[C@@H]1CN([C@H](C)CO)C(=O)c2cc(NC(=O)Nc3ccc(C(F)(F)F)cc3)ccc2O[C@@H](C)CCCCO[C@H]1CN(C)Cc1ccc2c(c1)OCO2
Response: true

Request: # outcome recorded in this test, key = CC(C)NC(=O)Nc1ccc2c(c1)CC(=O)N([C@@H](C)CO)C[C@@H](C)[C@@H](CN(C)C(=O)NC1CCCCC1)O2
Response: false

Request: # outcome recorded in this test, key = C[C@H](CO)N1C[C@H](C)[C@@H](CN(C)Cc2ccc3c(c2)OCO3)OCCCC[C@H](C)Oc2ccc(NC(=O)Nc3ccc(C(F)(F)F)cc3)cc2C1=O
Response: true

Request: # outcome recorded in this test, key = CNC[C@H]1Oc2c(NS(=O)(=O)c3cn(C)cn3)cccc2C(=O)N([C@H](C)CO)C[C@H]1C
Response: false

Request: # outcome recorded in this test, key = O=C(C=CC=Cc1ccc2c(c1)OCO2)N1CCCCC1
Response: false

Request: # outcome recorded in this test, key = C[C@@H]1CN([C@H](C)CO)C(=O)Cc2cc(NC(=O)CCCCCC(=O)Nc3ccccc3N)ccc2O[C@@H]1CN(C)Cc1ccc(C(F)(F)F)cc1
Response: true

Request: # outcome recorded in this test, key = C[C@H](CO)N1C[C@H](C)[C@H](CN(C)C(=O)NC2CCCCC2)Oc2c(NC(=O)Nc3cccc4ccccc34)cccc2C1=O
Response: true

Request: # outcome recorded in this test, key = Clc1ccc(/C=N/Cc2ccc(-c3cccs3)s2)cc1
Response: false

Request: # outcome recorded in this test, key = Cc1noc(C)c1NC(=O)Nc1ccc2c(c1)C(=O)N([C@@H](C)CO)C[C@H](C)[C@@H](CN(C)Cc1ccncc1)OCCCC[C@@H](C)O2
Response: false
